- Tested on: NO production in macrophage RAW 264.7 cells
- MEASUREMENT DESCRIPTION: Inhibition of LPS-induced NO production in RAW 264.7 macrophages (Griess)
- Format: cell-based
- SETUP CONDITIONS: Mus musculus, RAW264.7; RAW 264.7 cells, 1 μg/mL LPS, 24 h, Griess reagent; mean of three experiments ± SD; read-out: NO Production (IC50)
pIC50: −log10 of the molar value.
RESULT TYPE: pIC50

Example entries and their recorded answers appear below.
Looking up COc1ccc(-c2coc3c4c(ccc3c2=O)OC(C)(C)C=C4)cc1OC [Compound 8] , I found its pIC50 recorded as 4.26

Summary for this molecule, COc1cc(OC)c(C(=O)C(=O)c2cc(OC)c3c(c2O)C=CC(C)(C)O3)cc1OC [Compound 2, placovinone B] : pIC50 is 4.51

Looking up COc1ccc(CC(=O)c2cc(OC)c3c(c2O)C=CC(C)(C)O3)cc1 [Compound 4, placovinone D] , I see its pIC50 listed as 4.81

P: COc1ccc(-c2coc3c4c(c(OC)cc3c2=O)OC(C)(C)CC4)cc1 [Compound 1, placovinone A]
Q: COc1cc(OC)c(OC)cc1CC(=O)c1cc(OC)c2c(c1O)C=CC(C)(C)O2 [Compound 3, placovinone C]
INPUT: # returns the entry with the larger pIC50; inputs P and Q Please reply using the label of the selected record.
OUTPUT: P
(P: 4.86, Q: 4.32)
